This document collects IC50 values reported for Tankyrase 1 (TNKS1) (Homo sapiens).
Numbers only; they are read as nM.

The examples below pair each entry with its known result.
CC(C)(C)OC(=O)N1CCC(C2Cc3[nH]c(=O)c4cccnc4c3CO2)CC1 (stereo not drawn)	39
CC(C)C1Cc2[nH]c(=O)c3ccoc3c2CO1 (racemic)	93.7
O=c1[nH]c2c(c3cnccc13)COC(C1CCCC1)C2 (racemic)	70.8

For the compound shown here, CC(C)C1Cc2[nH]c(=O)c3ccc(C4CC4)cc3c2CO1 (racemic) , give the reported IC50.
91

For the compound shown here, CC(=O)N1CCC(C2Cc3[nH]c(=O)c4ccccc4c3CO2)C1 (stereo not drawn) , give the reported IC50.
49.9

For the compound shown here, Cc1cccc2c(=O)[nH]c3c(c12)COC(C(C)(C)O)C3 (racemic) , give the reported IC50.
32

For the compound shown here, Cc1cncc2c(=O)[nH]c3c(c12)COC(C(C)(C)C)C3 (racemic) , give the reported IC50.
25.9

For the compound shown here, CC(=O)N1CCC(C2Cc3[nH]c(=O)c4ccccc4c3CO2)CC1 (racemic) , give the reported IC50.
25.5
